// data source = ChEMBL document CHEMBL4130462

The following compounds are shown together with reported MIC values.
Test system: Mycobacterium avium
Experimental Conditions: 104
Description: Inhibition of multidrug resistance efflux pump in Mycobacterium avium 104 assessed as potentiation of clarithromycin -induced antibacterial activity by measuring clarithromycin MIC at 1/2 MIC incubated for 3 days by MTT assay
Supply the numeric figure in µg/mL, leaving out any unit text.

CCCOc1ccc(-c2cn(CCN(CC)CC)c3ccccc3c2=O)cc1 :: 0.5
CN(C)CCCN1c2ccccc2Sc2ccc(Cl)cc21 [CHLORPROMAZINE] :: 1

Next item in the queue.
What is its MIC for Mycobacterium avium? Entry: CSc1ccc2c(c1)N(CCC1CCCCN1C)c1ccccc1S2 (stereo not given) [THIORIDAZINE]
2

---

// endpoint MIC / system Mycobacterium avium subsp. avium ATCC 25291
Unit µg/mL implied. Number only.

CSc1ccc2c(c1)N(CCC1CCCCN1C)c1ccccc1S2 (stereo not given) [THIORIDAZINE] :: 8

Next, consider the following compound.
Test system Mycobacterium avium subsp. avium ATCC 25291; read-out MIC; what value for "CCCOc1ccc(-c2cn(CCN(CC)CC)c3ccccc3c2=O)cc1" ?
16
